assay: clinical; conditions: human, in vivo, 2.4 mg
Counter-ions that a name gives are not always drawn.
Measured endpoint: concentration at 0 h (ng/mL)
Numbers only, in ng/mL.

Task item: Dear colleague, please send me the reported concentration at 0 h for O=C1CC[C@@]2(O)[C@H]3Cc4ccc(O)c5c4[C@@]2(CCN3CC2CC2)[C@H]1O5 [Naltrexone HCl Solution] when you can.
Reply: 0

---

test: clinical; conditions: human, in vivo, 2.4 mg
Where a name gives a salt, the structure may show the parent alone.
Measured endpoint: concentration at 8 h (ng/mL)
One number for each entry, in ng/mL.

Task item: Return reported concentration at 8 h. Input compound: O=C1CC[C@@]2(O)[C@H]3Cc4ccc(O)c5c4[C@@]2(CCN3CC2CC2)[C@H]1O5 [Naltrexone HCl Solution]
Reply: 0.0518

---

experiment: clinical; conditions: human, in vivo, 2.4 mg
Where a name gives a salt, the structure may show the parent alone.
Measured endpoint: concentration at 6 h (ng/mL)
One number for each entry, in ng/mL.

Task item: # return recorded concentration at 6 h for input O=C1CC[C@@]2(O)[C@H]3Cc4ccc(O)c5c4[C@@]2(CCN3CC2CC2)[C@H]1O5 [Naltrexone HCl Solution]
Reply: 0.0957

---

assay: clinical; conditions: human, in vivo, 2.4 mg, Naltrexone AUCinf, Mean, single dose 2.4 mg naltrexone, fasted
Where a name gives a salt, the structure may show the parent alone.
Measured endpoint: AUC(0-inf) (ng·h/mL)
Answers are plain numbers, in ng·h/mL.

Task item: Read off the recorded AUC(0-inf) for O=C1CC[C@@]2(O)[C@H]3Cc4ccc(O)c5c4[C@@]2(CCN3CC2CC2)[C@H]1O5 [Naltrexone HCl Solution]
Reply: 2.24

---

assay: clinical; conditions: human, in vivo, 2.4 mg
Where a name gives a salt, the structure may show the parent alone.
Measured endpoint: concentration at 0.5 h (ng/mL)
Numbers only, in ng/mL.

Task item: Identify the reported concentration at 0.5 h for the following entry. O=C1CC[C@@]2(O)[C@H]3Cc4ccc(O)c5c4[C@@]2(CCN3CC2CC2)[C@H]1O5 [Naltrexone HCl Solution]
Reply: 0.455

---

assay: clinical; details: human, in vivo, 2.4 mg
Counter-ions that a name gives are not always drawn.
Measured endpoint: concentration at 72 h (ng/mL)
One number for each entry, in ng/mL.

Task item: Give the reported concentration at 72 h for this molecule. O=C1CC[C@@]2(O)[C@H]3Cc4ccc(O)c5c4[C@@]2(CCN3CC2CC2)[C@H]1O5 [Naltrexone HCl Solution]
Reply: 0

---

experiment: clinical; settings: human, in vivo, 2.4 mg, Naltrexone Cmax, Mean, single dose 2.4 mg naltrexone, fasted
Counter-ions that a name gives are not always drawn.
Measured endpoint: Cmax (ng/mL)
One number for each entry, in ng/mL.

Task item: Supply reported Cmax belonging to this molecule: O=C1CC[C@@]2(O)[C@H]3Cc4ccc(O)c5c4[C@@]2(CCN3CC2CC2)[C@H]1O5 [Naltrexone HCl Solution]
Reply: 0.689

---

assay: clinical; conditions: human, in vivo, 2.4 mg
Counter-ions that a name gives are not always drawn.
Measured endpoint: concentration at 96 h
Phrase the answer as number then unit, nothing more needed.

Task item: Output concentration at 96 h of O=C1CC[C@@]2(O)[C@H]3Cc4ccc(O)c5c4[C@@]2(CCN3CC2CC2)[C@H]1O5 [Naltrexone HCl Solution]
Reply: 0 ng/mL

Data provenance is patent US20140328930A1.
